# assay.target: HIV-1 gp120 on envelope-pseudotyped luciferase-reporter virus (strain not stated, Example 8) (HIV-1, strain )
# experiment.summary: cell-based or functional assay
Where no end group is shown, it is not given here. [ ]: non-standard residue; d: D form.
reported.metric: IC50 (µM), pseudotype virus cell infection assay
Please respond with the number in µM and leave the unit unwritten.

- binder: "XNNIPWS (not fully specified; residue 1 is citrulline (Cit); proline 5 is a 1,2,3-triazole-modified proline (Azp) 4-substituted with ferrocene, Rink amide resin; also called CitNNIPWS) [UM24]"
  unit.of.measure: "µM"
  measured.result: 4.9
- binder: "NNI[Azp‑triazole‑ferrocene]WS-NH2 (Rink amide resin; also called NNIPWS) [UM31]"
  unit.of.measure: "µM"
  measured.result: 10
- binder: "INI[Azp‑triazole‑ferrocene]WS-NH2 (Rink amide resin; also called INIPWS) [UM35]"
  unit.of.measure: "µM"
  measured.result: 17
- binder: "INNI[Azp‑triazole‑ferrocene]WS-NH2 (Rink amide resin; also called INNIPWS) [UM21]"
  unit.of.measure: "µM"
  measured.result: 7.4
- binder: "FNNI[Azp‑triazole‑ferrocene]WS-NH2 (Rink amide resin; also called FNNIPWS) [UM28]"
  unit.of.measure: "µM"
  measured.result: 11

Request: Read the entry EINNI[Azp‑triazole‑ferrocene]WS-NH2 (Rink amide resin) [UM13] and write its reported IC50 (µM), pseudotype virus cell infection assay.
Response: 3.2

Request: Please report IC50 (µM), pseudotype virus cell infection assay for the following binder: RINNI[Azp‑triazole‑ferrocene]W (also called RINNIPW) [UM12]
Response: 12.5

Request: Annotate the binder INNI[Azp‑triazole‑ferrocene]W-NH2 (Rink amide resin; also called INNIPW) [UM15] with its measured IC50 (µM), pseudotype virus cell infection assay.
Response: 7.2

Request: Indicate its recorded IC50 (µM), pseudotype virus cell infection assay; the binder in question is ENNI[Azp‑triazole‑ferrocene]WS-NH2 (Rink amide resin; also called ENNIPWS) [UM23]
Response: 6.6

Request: Query IC50 (µM), pseudotype virus cell infection assay for RINNI[Azp‑triazole‑ferrocene]WS-NH2 (Rink amide resin) [UM11]
Response: 10.7
